Reported TC50 (concentration that reduced cell viability by 50%) by item:
# Tested on: CEM cells
# Format: cell-based
Non-standard residues stand in square brackets, D forms with d. Residues, ends and D or L forms follow the SMILES beside them. 1Nal = N[C@@H](Cc1cccc2ccccc12)C(=O)O; Sta = CC(C)C[C@H](N)[C@@H](O)CC(=O)O

Look over these answered cases.
CC(=O)N[C@@H](Cc1c[nH]c2ccccc12)C(=O)N1CCC[C@H]1C(=O)N[C@@H](Cc1ccccc1)C(=O)N[C@H](C(=O)N[C@@H](CC(C)C)[C@@H](O)CC(=O)N[C@@H](CC(C)C)C(=O)N[C@@H](Cc1ccccc1)C(N)=O)C(C)C [P-8, Ac Trp Pro Phe Val Statine Leu Phe NH2] (Ac-WPFV[Sta]LF-NH2): 66 µg/mL
CC(=O)N[C@@H](Cc1cccc2ccccc12)C(=O)N1CCC[C@H]1C(=O)N[C@@H](Cc1ccccc1)C(=O)N[C@H](C(=O)N[C@@H](CC(C)C)[C@@H](O)CC(=O)N[C@@H](CC(C)C)C(=O)N[C@@H](Cc1ccccc1)C(N)=O)C(C)C [P-7, Ac NA Pro Phe Val Statine Leu Phe NH2] (Ac-[1Nal]PFV[Sta]LF-NH2): > 10 µg/mL

Prompt line: Write down TC50 (concentration that reduced cell viability by 50%) measured for item CC(=O)N[C@@H](Cc1ccc(O)cc1)C(=O)N1CCC[C@H]1C(=O)N[C@@H](Cc1ccccc1)C(=O)N[C@H](C(=O)N[C@@H](CC(C)C)[C@@H](O)CC(=O)N[C@@H](CC(C)C)C(=O)N[C@@H](Cc1ccccc1)C(N)=O)C(C)C [P-5, Ac Tyr Pro Phe Val Statine Leu Phe NH2] (Ac-YPFV[Sta]LF-NH2)
Response line: > 100 µg/mL
